Target: T1, CD73 on the surface of human cells (human, UniProt P21589 27-549)
T1 construct: whole, on cells; The cell line of each value is named under assay or readout; also called CD73 on the surface of tumor cells; CD73 enzyme on the surface of MDA-MB-231 cells
T1 sequence (looked up): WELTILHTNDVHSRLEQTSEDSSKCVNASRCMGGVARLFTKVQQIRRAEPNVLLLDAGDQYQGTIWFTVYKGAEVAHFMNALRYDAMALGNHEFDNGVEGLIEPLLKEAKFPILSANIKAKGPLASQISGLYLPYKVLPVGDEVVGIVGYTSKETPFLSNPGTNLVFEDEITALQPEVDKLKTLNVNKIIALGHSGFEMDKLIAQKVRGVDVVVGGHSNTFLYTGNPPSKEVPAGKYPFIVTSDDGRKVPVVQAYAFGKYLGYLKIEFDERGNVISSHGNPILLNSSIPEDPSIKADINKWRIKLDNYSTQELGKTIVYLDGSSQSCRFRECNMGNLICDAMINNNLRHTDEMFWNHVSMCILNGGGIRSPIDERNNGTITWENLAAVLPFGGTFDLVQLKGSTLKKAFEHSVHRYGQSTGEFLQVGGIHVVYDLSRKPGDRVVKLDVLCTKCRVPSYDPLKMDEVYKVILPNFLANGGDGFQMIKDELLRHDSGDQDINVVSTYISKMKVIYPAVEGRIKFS
Assay: Flow cytometry on NCI-H1299 cells, PE-labelled secondary antibody [panel B]
Measured Metric: Max MFI (MFI)

binder="chimeric nanobody 5-E11 (Fc fusion, Human-alpaca chimeric antibody (VHH on hIgG1 Fc); Only the VHH is tied to the tested molecule; also called original antibody 5-E11) VHH: ALQLVESGGGLVQPGGSLRLSCEVSGFTLDYYNIGWFRQAPGKEREGVSCSSNSGGSTYYADSVKGRFTISRDNAKNTVYLQMNSLKPEDTGVYYCAAYRGWHPSLDARVYDYWGQGTEVTVSS" reported_measurement=157000
binder="chimeric nanobody 4-D04 (Fc fusion, Human-alpaca chimeric antibody) VHH: QLQLVESGGGLVQPGGSLRLSCAASGFTLDYYNIGWFRQAPGKEREGVSCISSSEGSTYYADSVKGRFTISRDNAKNTVYLQMNSLKPEDTAVYYCAADRYYYCSLHVSQYDYWGQGTLVTVSS" reported_measurement=168000
binder="chimeric nanobody 3-D7 (Fc fusion, Human-alpaca chimeric antibody (VHH on hIgG1 Fc); Only the VHH is tied to the tested molecule; 37-39 exist for 3-D7-FC1/FC2/FC3; also called original antibody 3-D7) VHH: QRQLVESGGGLVQPGGSLRLSCAASGFLLDYYVIGWFRQAPGKEREGVSCISGSDRSTYYADSVKGRFTISRDNAKNTVYLQMNSLKPEDTAVYFCAADPSPVTVQAMCLPRFPVPYWGQGTQVTVST" reported_measurement=155000
binder="chimeric nanobody 4-B02 (Fc fusion, Human-alpaca chimeric antibody) VHH: EVQLVESGGGLVQPGGSLRLSCAASGFPLDYYSIGWFRQAPGKEREGVSCIGSSDGSTYYADSVKGRFTISRDNAENTVWLQMNSLKPEDTAVYYCAALKYYYCSGHEAIYDYWGQGTQVTVSG" reported_measurement=170000
